# ASSAY INFO: Antioxidant activity assessed as trolox equivalent of AAPH radical scavenging activity compound preincubated for 10 mins followed by AAPH challenge measured every min for 120 mins by ORAC-FL assay
# Assay type: physicochemical
# MEASUREMENT PARAMETERS: 2 h
QUANTITY KIND: Activity (µmol)

>>> numeric_result("C#CCN(C)[C@H](C)Cc1ccc(NCc2cc(F)ccc2O)cc1")
2.26
>>> numeric_result("C#CCN(C)[C@H](C)Cc1ccc(NCc2cc(Cl)ccc2O)cc1")
4.44
>>> numeric_result("C#CCN(C)[C@H](C)Cc1ccc(NCc2ccc(OC)cc2O)cc1")
4.35
>>> numeric_result("C#CCN(C)[C@H](C)Cc1ccc(NCc2cc(OC)ccc2O)cc1")
3.81
>>> numeric_result("C#CCN(C)[C@H](C)Cc1ccc(NCc2cc([N+](=O)[O-])ccc2O)cc1")
2.1
>>> numeric_result("C#CCN(C)[C@H](C)Cc1ccc(NCc2ncccc2OC)cc1")
1.49
>>> numeric_result("C#CCN(C)[C@H](C)Cc1ccc(NCc2cc(O)ccc2O)cc1")
5.67
>>> numeric_result("C#CCN(C)[C@H](C)Cc1ccc(NCc2cc(N(C)C)ccc2O)cc1")
4.52
>>> numeric_result("C#CCN(C)[C@H](C)Cc1ccc(NCc2ncccc2C)cc1")
1.78
>>> numeric_result("C#CCN(C)[C@H](C)Cc1ccc(NCc2ccccc2O)cc1")
4.2
>>> numeric_result("C#CCN(C)[C@H](C)Cc1ccc(NCc2cccc(OC)c2O)cc1")
2.44
